Tested on: Mfn2 null MEFs
Assay: Mitochondrial elongation (aspect ratio) fusogenicity assay
Format: cell-based, mouse
Parameters: dose or concentration left out as unconfirmed
Details: mitochondrial elongation relative to Cpd B (B01 = 100); Mfn2 null MEFs, compound overnight as printed (FIG. 48)
READOUT LABEL: % long compare to B (%)
Only the number, expressed in %, is required.

INPUT: Reported % long compare to B, compound O=C(NCCSCc1ccccc1)C1CCCCO1 (stereo not shown) [E05] : ____
OUTPUT: 1

INPUT: Field entry: COc1ccccc1-n1cnnc1SCC(=O)Nc1sc2c(c1C(N)=O)CCC2 [1-E2]
OUTPUT: 17

INPUT: Field entry: c1ccc(CSCCc2nc(C3CCOC3)no2)cc1 (stereo not shown) [E07]
OUTPUT: 4

INPUT: Field entry: CC(Sc1nnc(C2CC2)n1Cc1ccccc1)C(=O)Nc1sccc1C(N)=O (stereo not shown) [B4]
OUTPUT: 4

INPUT: Field entry: CC(Sc1nnc(-c2ccccc2)n1-c1ccccc1)C(=O)Nc1sc2c(c1C(N)=O)CCC2 (stereo not shown) [1-H8]
OUTPUT: −4

INPUT: Field entry: NC(=O)c1c(NC(=O)CSc2nnc(-c3ccco3)n2-c2ccccc2)sc2c1CCC2 [1-F1]
OUTPUT: 21

INPUT: Field entry: NC(=O)c1c(NC(=O)CCCc2ccccc2)sc2c1CCC2 [pB]
OUTPUT: 6

INPUT: Field entry: CCC(c1nnc(SCC(=O)Nc2sc3c(c2C(N)=O)CCC3)n1Cc1ccccc1)N(C)C (stereo not shown) [1-D1]
OUTPUT: 23

INPUT: Field entry: COc1ccc(-n2cnnc2SCC(=O)Nc2sc3c(c2C(N)=O)CCC3)cc1 [1-D2]
OUTPUT: 128

INPUT: Field entry: CCn1c(SCC(=O)Nc2sc3c(c2C(=O)NCc2ccccc2)CCCC3)nnc1C1CC1 [1-E6]
OUTPUT: 10

====

Provide the reported Aspect ratio (MEAN ± SEM) of each item.
System: Mfn2 null MEFs
Assay: Mitochondrial elongation (aspect ratio) fusogenicity assay
Format: cell-based, mouse
Details: Mfn2 null MEFs, overnight; treatment with 1 μM compound (footnote)
Method: A cultured murine embryonic fibroblast assay system was used in which mitochondrial elongation (an increase in aspect ratio) reflects enhanced mitochondrial fusion. A pharmacophore model was generated based on the interactions of HR1 and HR2 domains in the calculated structural model of Mfn2 in the closed conformation. […] A library comprising ˜14 million commercially available compounds was prepared in silico and evaluated using PHASE to fit these criteria. […]

INPUT: Reported Aspect ratio (MEAN ± SEM), molecule CC(c1cccc([N+](=O)[O-])c1)N(C)CC(=O)NCCSCc1ccccc1C#N (stereo not drawn) : ____
OUTPUT: 4.0 ± 0.5

INPUT: Field entry: Cc1ccc(C(C)C)c(OCCCSCc2nc3ccccc3[nH]2)c1 [drawing 200]
OUTPUT: 3.0 ± 0.4

INPUT: Field entry: c1ccc(CSCCc2nc(C3CCOC3)no2)cc1 (stereo not drawn) [drawing 238]
OUTPUT: 3.4 ± 0.6

INPUT: Field entry: CC(C)C1=CC2C(=O)NC(CSCC(=O)NCc3ccccn3)=NC2S1 (stereo not drawn) [drawing 204]
OUTPUT: 3.8 ± 0.6

INPUT: Field entry: CCCc1noc(C(C)Sc2nc3cc(C)ccc3[nH]2)n1 (stereo not drawn) [drawing 231]
OUTPUT: 4.0 ± 1.0

INPUT: Field entry: COc1ccc(SC(C)C(=O)Nc2cc[nH]n2)cc1 (stereo not drawn) [drawing 201]
OUTPUT: 3.8 ± 0.4

INPUT: Field entry: Cc1cc(C)n2nc(C(=O)N3C[C@@H]4CCN(Cc5nccn5C)[C@@H]4C3)cc2n1 [drawing 198]
OUTPUT: 9.0 ± 3.1

INPUT: Field entry: CC(Sc1nnc(N2CCOCC2)n1Cc1ccccc1)C(=O)Nc1ccc2[nH]c(=O)[nH]c2c1 (stereo not drawn) [drawing 223]
OUTPUT: 5.2 ± 0.2

INPUT: Field entry: Cc1ccc(SC2CCN(Cc3cc4n(n3)CCNC4)CC2)cc1 [drawing 246]
OUTPUT: 2.9 ± 0.2
